Recorded pIC50 by entry
- Test system: HCT-116
- protocol.notes: Compound was tested for cytotoxicity against human colon tumor cell line (HCT116)
- Format: functional, cell-based
Reminder that pIC50 is minus the log10 of a molar concentration.

{"molecule": "CC(=O)OCCN(CCOC(C)=O)C(=O)OCO[C@H]1C[C@H]2OC[C@@]2(OC(C)=O)C2[C@H](OC(=O)c3ccccc3)[C@]3(O)C[C@H](OC(=O)[C@H](O)[C@@H](NC(=O)c4ccccc4)c4ccccc4)C(C)=C([C@@H](OC(C)=O)C(=O)[C@@]21C)C3(C)C (some centres undefined)", "pIC50": 8.41}

Query: Which value of pIC50 has been reported for CC(=O)O[C@H]1C(=O)[C@@]2(C)C([C@H](OC(=O)c3ccccc3)[C@]3(O)C[C@H](OC(=O)[C@H](O)[C@@H](NC(=O)c4ccccc4)c4ccccc4)C(C)=C1C3(C)C)[C@]1(OC(C)=O)CO[C@@H]1C[C@@H]2OC(=O)CCCc1ccc(N(CCCl)CCCl)cc1 (some centres undefined) in the records?
Response: 6.79

Query: Which value of pIC50 has been reported for CC(=O)O[C@H]1C(=O)[C@@]2(C)C([C@H](OC(=O)c3ccccc3)[C@]3(O)C[C@H](OC(=O)[C@H](O)[C@@H](NC(=O)c4ccccc4)c4ccccc4)C(C)=C1C3(C)C)[C@]1(OC(C)=O)CO[C@@H]1C[C@@H]2OCOC(=O)CCCc1ccc(N(CCCl)CCCl)cc1 (some centres undefined) in the records?
Response: 8.34

Query: Which value of pIC50 has been reported for CC(=O)O[C@H]1C(=O)[C@@]2(C)C([C@H](OC(=O)c3ccccc3)[C@]3(O)C[C@H](OC(=O)[C@H](O)[C@@H](NC(=O)c4ccccc4)c4ccccc4)C(C)=C1C3(C)C)[C@]1(OC(C)=O)CO[C@@H]1C[C@@H]2OCOC(=O)N(CCOC(=O)CCCc1ccc(N(CCCl)CCCl)cc1)CCOC(=O)CCCc1ccc(N(CCCl)CCCl)cc1 (some centres undefined) in the records?
Response: 7.62

====

- system.tested: Tubulin alpha chain (Sus scrofa) (UniProt P02550)
- Sequence (P02550 whole entry, looked up): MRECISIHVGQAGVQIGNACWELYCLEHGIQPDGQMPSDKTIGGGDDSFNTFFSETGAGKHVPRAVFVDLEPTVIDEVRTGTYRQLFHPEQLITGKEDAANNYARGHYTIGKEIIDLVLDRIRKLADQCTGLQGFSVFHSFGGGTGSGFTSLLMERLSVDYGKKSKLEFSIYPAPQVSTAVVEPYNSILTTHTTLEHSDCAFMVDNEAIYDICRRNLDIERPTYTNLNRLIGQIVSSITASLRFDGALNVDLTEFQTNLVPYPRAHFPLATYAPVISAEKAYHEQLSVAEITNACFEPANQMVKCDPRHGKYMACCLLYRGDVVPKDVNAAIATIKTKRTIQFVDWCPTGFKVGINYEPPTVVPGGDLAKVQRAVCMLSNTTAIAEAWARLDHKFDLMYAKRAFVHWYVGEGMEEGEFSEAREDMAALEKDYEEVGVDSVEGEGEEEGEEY
- protocol.notes: Compound was tested in vitro for inhibition of tubulin polymerization, expressed as ratio to that obtained for paclitaxel
- Format: functional
Recorded Tubulin polymerization by entry
Lab note: write the figure by itself, no unit.

{"compound": "CC(=O)O[C@H]1C(=O)[C@@]2(C)C([C@H](OC(=O)c3ccccc3)[C@]3(O)C[C@H](OC(=O)[C@H](O)[C@@H](NC(=O)c4ccccc4)c4ccccc4)C(C)=C1C3(C)C)[C@]1(OC(C)=O)CO[C@@H]1C[C@@H]2OC(=O)CCCc1ccc(N(CCCl)CCCl)cc1 (stereo not given in full)", "Tubulin polymerization": 53}

// below: Tubulin polymerization requested for another compound
Query: Which value of Tubulin polymerization has been reported for CC(=O)OCCN(CCOC(C)=O)C(=O)OCO[C@H]1C[C@H]2OC[C@@]2(OC(C)=O)C2[C@H](OC(=O)c3ccccc3)[C@]3(O)C[C@H](OC(=O)[C@H](O)[C@@H](NC(=O)c4ccccc4)c4ccccc4)C(C)=C([C@@H](OC(C)=O)C(=O)[C@@]21C)C3(C)C (stereo not given in full) in the records?
Response: 6.5

====

- Tested on: M109
- protocol.notes: Compound was tested in vivo against M109 using Madison murine lung carcinoma (M109) tumor model
- Format: functional, Mus musculus
recorded.metric: T/C (%)
Write the number in % without appending the unit.

Worked cases, answers included:
{"compound": "CC(=O)O[C@H]1C(=O)[C@@]2(C)C([C@H](OC(=O)c3ccccc3)[C@]3(O)C[C@H](OC(=O)[C@H](O)[C@@H](NC(=O)c4ccccc4)c4ccccc4)C(C)=C1C3(C)C)[C@]1(OC(C)=O)CO[C@@H]1C[C@@H]2OCOC(=O)N(CCOC(=O)CCCc1ccc(N(CCCl)CCCl)cc1)CCOC(=O)CCCc1ccc(N(CCCl)CCCl)cc1 (stereo not given in full)", "system.tested": "M109", "output.unit": "%", "T/C": 224}
{"compound": "CC(=O)O[C@H]1C(=O)[C@@]2(C)[C@H]([C@H](OC(=O)c3ccccc3)[C@]3(O)C[C@H](OC(=O)[C@H](O)[C@@H](NC(=O)c4ccccc4)c4ccccc4)C(C)=C1C3(C)C)[C@]1(OC(C)=O)CO[C@@H]1C[C@@H]2O", "system.tested": "M109", "output.unit": "%", "T/C": 246}
{"compound": "CC(=O)O[C@H]1C(=O)[C@@]2(C)C([C@H](OC(=O)c3ccccc3)[C@]3(O)C[C@H](OC(=O)[C@H](O)[C@@H](NC(=O)c4ccccc4)c4ccccc4)C(C)=C1C3(C)C)[C@]1(OC(C)=O)CO[C@@H]1C[C@@H]2OC(=O)CCCc1ccc(N(CCCl)CCCl)cc1 (stereo not given in full)", "system.tested": "M109", "output.unit": "%", "T/C": 127}

Query: Which value of T/C has been reported for CC(=O)OCCN(CCOC(C)=O)C(=O)OCO[C@H]1C[C@H]2OC[C@@]2(OC(C)=O)C2[C@H](OC(=O)c3ccccc3)[C@]3(O)C[C@H](OC(=O)[C@H](O)[C@@H](NC(=O)c4ccccc4)c4ccccc4)C(C)=C([C@@H](OC(C)=O)C(=O)[C@@]21C)C3(C)C (stereo not given in full) in the records?
Response: 17

Query: Which value of T/C has been reported for CC(=O)O[C@H]1C(=O)[C@@]2(C)C([C@H](OC(=O)c3ccccc3)[C@]3(O)C[C@H](OC(=O)[C@H](O)[C@@H](NC(=O)c4ccccc4)c4ccccc4)C(C)=C1C3(C)C)[C@]1(OC(C)=O)CO[C@@H]1C[C@@H]2OCOC(=O)CCCc1ccc(N(CCCl)CCCl)cc1 (stereo not given in full) in the records?
Response: 155
